The measurements presented in this section are drawn from ChEMBL document CHEMBL5331136.

assay: Metabolic stability in human liver S9 fraction assessed as parent compound remaining at 10 uM measured after 120 mins in presence of UDP-glucuronic acid by LC-MS/MS analysis; format: ADME, subcellular; conditions: read-out: Stability
recorded.metric: remaining at 2 h, 10 µM (%)
Write the answer as a number in %, unit excluded.

Use these answered entries as a reference point.
{"compound": "O=C(O)c1ncn2c1C1(CC1)N=C(c1ccccc1F)c1cc(Cl)ccc1-2", "remaining at 2 h, 10 µM / %": 103}
{"compound": "O=C(O)c1ncn2c1C1(CCCCC1)N=C(c1ccccc1F)c1cc(Br)ccc1-2", "remaining at 2 h, 10 µM / %": 106}
{"compound": "O=C(O)c1ncn2c1C1(CCC1)N=C(c1ccccc1F)c1cc(Br)ccc1-2", "remaining at 2 h, 10 µM / %": 113}
{"compound": "CCC1N=C(c2ccccc2F)c2cc(Br)ccc2-n2cnc(C(=O)O)c21 (racemic)", "remaining at 2 h, 10 µM / %": 111}
{"compound": "CC1(C)N=C(c2ccccc2F)c2cc(Br)ccc2-n2cnc(C(=O)O)c21", "remaining at 2 h, 10 µM / %": 111}
{"compound": "O=C(O)c1ncn2c1C1(CC1)N=C(c1ccccc1F)c1cc(C3CC3)ccc1-2", "remaining at 2 h, 10 µM / %": 96}
{"compound": "O=C(O)c1ncn2c1C1(CCCC1)N=C(c1ccccc1F)c1cc(Br)ccc1-2", "remaining at 2 h, 10 µM / %": 96}
{"compound": "C#Cc1ccc2c(c1)C(c1ccccc1F)=NC1(CC1)c1c(C(=O)O)ncn1-2", "remaining at 2 h, 10 µM / %": 93}
{"compound": "O=C(O)c1ncn2c1C1(CC1)N=C(c1ccccc1F)c1ccccc1-2", "remaining at 2 h, 10 µM / %": 96}

From here, focus on the item given below.
Task item: remaining at 2 h, 10 µM for O=C(O)c1ncn2c1C1(CC1)N=C(c1ccccc1F)c1cc(Br)ccc1-2 ?
Reply: 69

---

Known remaining at 2 h, 10 µM of a selection of molecules
assay: Metabolic stability in human liver S9 fraction assessed as parent compound remaining at 10 uM measured after 120 mins in presence of NADPH by LC-MS/MS analysis; format: ADME, subcellular; conditions: liver S9 fraction, read-out: Stability
Write the answer as a number in %, unit excluded.

Use these answered entries as a reference point.
{"molecule": "CC1(C)N=C(c2ccccc2F)c2cc(Br)ccc2-n2cnc(C(=O)O)c21", "remaining at 2 h, 10 µM (%)": 106}
{"molecule": "O=C(O)c1ncn2c1C1(CCCC1)N=C(c1ccccc1F)c1cc(Br)ccc1-2", "remaining at 2 h, 10 µM (%)": 114}
{"molecule": "O=C(O)c1ncn2c1C1(CCCCC1)N=C(c1ccccc1F)c1cc(Br)ccc1-2", "remaining at 2 h, 10 µM (%)": 107}

Task item: remaining at 2 h, 10 µM for CCC1N=C(c2ccccc2F)c2cc(Br)ccc2-n2cnc(C(=O)O)c21 (racemic) ?
Reply: 119

---

Known remaining at 2 h, 10 µM of a selection of compounds
assay: Metabolic stability in mouse liver S9 fraction assessed as parent compound remaining at 10 uM measured after 120 mins in presence of UDP-glucuronic acid by LC-MS/MS analysis; type: ADME, subcellular; settings: read-out: Stability
Write the answer as a number in %, unit excluded.

Use these answered entries as a reference point.
{"compound": "CC1(C)N=C(c2ccccc2F)c2cc(Br)ccc2-n2cnc(C(=O)O)c21", "observed": 107}
{"compound": "O=C(O)c1ncn2c1C1(CC1)N=C(c1ccccc1F)c1cc(Br)ccc1-2", "observed": 90}
{"compound": "O=C(O)c1ncn2c1C1(CCCCC1)N=C(c1ccccc1F)c1cc(Br)ccc1-2", "observed": 78}
{"compound": "O=C(O)c1ncn2c1C1(CC1)N=C(c1ccccc1F)c1cc(C3CC3)ccc1-2", "observed": 95}

Task item: remaining at 2 h, 10 µM for O=C(O)c1ncn2c1C1(CCC1)N=C(c1ccccc1F)c1cc(Br)ccc1-2 ?
Reply: 91

Task item: Then this compound: O=C(O)c1ncn2c1C1(CC1)N=C(c1ccccc1F)c1ccccc1-2
Reply: 99

Task item: Then this compound: C#Cc1ccc2c(c1)C(c1ccccc1F)=NC1(CC1)c1c(C(=O)O)ncn1-2
Reply: 113

Task item: Then this compound: O=C(O)c1ncn2c1C1(CCCC1)N=C(c1ccccc1F)c1cc(Br)ccc1-2
Reply: 92

Task item: Then this compound: CCC1N=C(c2ccccc2F)c2cc(Br)ccc2-n2cnc(C(=O)O)c21 (racemic)
Reply: 114

Task item: Then this compound: O=C(O)c1ncn2c1C1(CC1)N=C(c1ccccc1F)c1cc(Cl)ccc1-2
Reply: 98

---

molecular target: GABA-A receptor; anion channel; assay: Displacement of [3H]flunitrazepam from GABAA receptor in rat brain extract
// returns FALSE unless IC50 is strictly below 100 µM, in which case TRUE

{"compound": "CCC1N=C(c2ccccc2F)c2cc(Br)ccc2NC1=O (racemic)", "category": "FALSE"}
{"compound": "CCC1N=C(c2ccccc2F)c2cc(Br)ccc2-n2cnc(C(=O)O)c21 (racemic)", "category": "FALSE"}
{"compound": "O=C(O)c1ncn2c1C1(CCC1)N=C(c1ccccc1F)c1cc(Br)ccc1-2", "category": "FALSE"}
{"compound": "O=C(O)c1ncn2c1C1(CC1)N=C(c1ccccc1F)c1cc(Br)ccc1-2", "category": "TRUE"}

Now look at this one.
Task item: Confirm or reject: IC50 of CCOC(=O)c1ncn2c1C(CC)N=C(c1ccccc1F)c1cc(Br)ccc1-2 (racemic) lies strictly below 100 µM
Reply: FALSE

---

test: Metabolic stability in mouse liver S9 fraction assessed as parent compound remaining at 10 uM measured after 120 mins in presence of NADPH by LC-MS/MS analysis; format: ADME, subcellular; conditions: read-out: Stability
Known remaining at 2 h, 10 µM of a selection of compounds
Write the answer as a number in %, unit excluded.

{"compound": "CCC1N=C(c2ccccc2F)c2cc(Br)ccc2-n2cnc(C(=O)O)c21 (racemic)", "unit.annotation": "%", "remaining at 2 h, 10 µM": 108}

Task item: remaining at 2 h, 10 µM for O=C(O)c1ncn2c1C1(CCCCC1)N=C(c1ccccc1F)c1cc(Br)ccc1-2 ?
Reply: 111

Task item: Then this compound: O=C(O)c1ncn2c1C1(CC1)N=C(c1ccccc1F)c1cc(C3CC3)ccc1-2
Reply: 102

Task item: Then this compound: O=C(O)c1ncn2c1C1(CCCC1)N=C(c1ccccc1F)c1cc(Br)ccc1-2
Reply: 117

Task item: Then this compound: CC1(C)N=C(c2ccccc2F)c2cc(Br)ccc2-n2cnc(C(=O)O)c21
Reply: 106

Task item: Then this compound: O=C(O)c1ncn2c1C1(CCC1)N=C(c1ccccc1F)c1cc(Br)ccc1-2
Reply: 90

Task item: Then this compound: O=C(O)c1ncn2c1C1(CC1)N=C(c1ccccc1F)c1cc(Cl)ccc1-2
Reply: 101

Task item: Then this compound: O=C(O)c1ncn2c1C1(CC1)N=C(c1ccccc1F)c1ccccc1-2
Reply: 108

Task item: Then this compound: O=C(O)c1ncn2c1C1(CC1)N=C(c1ccccc1F)c1cc(Br)ccc1-2
Reply: 120

Task item: Then this compound: C#Cc1ccc2c(c1)C(c1ccccc1F)=NC1(CC1)c1c(C(=O)O)ncn1-2
Reply: 108

---

target: GABA-A receptor; anion channel (Rattus norvegicus) (UniProt O09028+P15431+P18506+P18508+P19969+P20236+P23574+P23576+P28471+P28473+P30191+P62813+P63079+P63138+Q91ZM7+Q9ES14); test: Displacement of [3H]flunitrazepam from GABAA receptor in rat brain extract at 10 uM relative to control; assay type: tissue-based
Known Activity of a selection of compounds
Write the answer as a number in %, unit excluded.

Use these answered entries as a reference point.
{"compound": "C#Cc1ccc2c(c1)C(c1ccccc1F)=NC1(CC1)C1C(C(=O)OCC)N=CN21 (stereo unspecified)", "Activity (%)": 56}
{"compound": "O=C(O)c1ncn2c1C1(CC1)N=C(c1ccccc1F)c1ccccc1-2", "Activity (%)": 74}
{"compound": "C#Cc1ccc2c(c1)C(c1ccccc1F)=NC1(CC1)c1c(C(=O)O)ncn1-2", "Activity (%)": 55}
{"compound": "CC1(C)N=C(c2ccccc2F)c2cc(Br)ccc2NC1=O", "Activity (%)": 70}
{"compound": "O=C(O)c1ncn2c1C1(CC1)N=C(c1ccccc1F)c1cc(C3CC3)ccc1-2", "Activity (%)": 58}

Task item: Activity for O=C1Nc2ccc(Br)cc2C(c2ccccc2F)=NC12CCCCC2 ?
Reply: 33

---

assay: Aqueous solubility of the compound at […] under shaking condition for 24 hrs by UV absorbance based analysis; type: physicochemical; conditions: buffer, 24 h
Known log10 of solubility of a selection of molecules
Recorded solubility (log10, µM)

{"given.smiles": "O=C1Nc2ccc(Br)cc2C(c2ccccc2F)=NC12CC2", "log10 of solubility": 2.51}
{"given.smiles": "CCOC(=O)c1ncn2c1C1(CC1)N=C(c1ccccc1F)c1cc(C3CC3)ccc1-2", "log10 of solubility": 1.98}
{"given.smiles": "O=C(O)c1ncn2c1C1(CC1)N=C(c1ccccc1F)c1cc(C3CC3)ccc1-2", "log10 of solubility": 4.11}
{"given.smiles": "CCOC(=O)c1ncn2c1C1(CC1)N=C(c1ccccc1F)c1cc(Cl)ccc1-2", "log10 of solubility": 1.73}

Task item: log10 of solubility for O=C(O)c1ncn2c1C1(CCCCC1)N=C(c1ccccc1F)c1cc(Br)ccc1-2 ?
Reply: 4.67
